assay_target: UniProt O00519
Sequence (O00519 whole entry): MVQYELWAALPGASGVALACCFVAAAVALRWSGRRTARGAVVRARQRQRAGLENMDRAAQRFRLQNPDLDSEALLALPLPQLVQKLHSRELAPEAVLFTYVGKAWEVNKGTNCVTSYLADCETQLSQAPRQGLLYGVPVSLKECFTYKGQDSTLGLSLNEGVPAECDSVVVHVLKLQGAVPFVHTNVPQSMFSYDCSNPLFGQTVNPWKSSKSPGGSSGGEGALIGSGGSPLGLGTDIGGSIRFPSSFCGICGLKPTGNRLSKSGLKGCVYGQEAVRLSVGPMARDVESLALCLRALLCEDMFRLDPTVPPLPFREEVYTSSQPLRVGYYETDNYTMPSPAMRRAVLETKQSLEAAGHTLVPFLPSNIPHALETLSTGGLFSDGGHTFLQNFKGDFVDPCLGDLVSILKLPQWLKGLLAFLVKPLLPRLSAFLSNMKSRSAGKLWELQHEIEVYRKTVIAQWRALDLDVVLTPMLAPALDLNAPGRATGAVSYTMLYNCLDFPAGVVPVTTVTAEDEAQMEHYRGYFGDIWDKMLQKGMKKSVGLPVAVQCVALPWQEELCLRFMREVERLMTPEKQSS
assay_remarks: Inhibition of FAAH in human U937 cell homogenate assessed as decrease in [ethanolamine-1-3H]AEA levels preincubated for 30 mins followed by AEA addition measured after 15 mins by liquid scintillation counting method
Property: IC50; scope: individual compounds

Below, 3 compounds whose answers are already recorded.
O=C(Nc1ccc(Cl)cc1)Nc1cccc(-c2cccc(N3CCCC3)n2)c1
2.1 µM
O=C(Cc1ccc(Cl)cc1)Nc1cccc(-c2cccc(N3CCCC3)c2)c1
> 10 µM
O=C(Nc1ccc(Cl)cc1)Nc1cccc(Nc2cccc(N3CCCC3)c2)c1
> 10 µM

Kindly note the recorded IC50 for O=C(Nc1ccc(Cl)cc1)Nc1cccc(-c2cccc(N3CCCC3)c2)c1 , which is > 10 µM

Kindly note the recorded IC50 for O=C(Nc1ccc(Cl)cc1)Nc1cccc(Nc2cccc(N3CCCC3)n2)c1 , which is > 10 µM

* * *

assay_target: Monoglyceride lipase (Homo sapiens) (UniProt Q99685)
Sequence (Q99685 whole entry): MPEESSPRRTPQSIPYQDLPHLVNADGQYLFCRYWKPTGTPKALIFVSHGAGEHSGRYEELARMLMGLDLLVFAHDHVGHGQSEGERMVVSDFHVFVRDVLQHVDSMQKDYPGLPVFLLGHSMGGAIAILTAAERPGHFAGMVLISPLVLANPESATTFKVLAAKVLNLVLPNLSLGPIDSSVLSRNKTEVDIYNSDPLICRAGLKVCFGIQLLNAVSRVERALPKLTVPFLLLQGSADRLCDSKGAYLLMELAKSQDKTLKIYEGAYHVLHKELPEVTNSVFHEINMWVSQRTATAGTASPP
assay_remarks: Inhibition of MAGL in human U937 cell homogenate assessed as decrease in [ethanolamine-1-3H]AEA levels up to 10 uM preincubated for 30 mins followed by AEA addition measured after 15 mins by liquid scintillation counting method
Calls of active or inactive are those of the source. The calls are words filed in the database; no cut-off is given here.
property_name: inhibition

Below, 4 compounds whose answers are already recorded.
O=C(Nc1ccc(Cl)cc1)Nc1cccc(-c2cccc(N3CCCC3)n2)c1
inactive
O=C(Cc1ccc(Cl)cc1)Nc1cccc(-c2cccc(N3CCCC3)c2)c1
inactive
O=C(Nc1ccc(Cl)cc1)Nc1cccc(Nc2cccc(N3CCCC3)c2)c1
inactive
O=C(Nc1ccc(Cl)cc1)Nc1cccc(Nc2cccc(N3CCCC3)n2)c1
inactive

Here is the next item to consider.
Kindly note the recorded inhibition for O=C(Nc1ccc(Cl)cc1)Nc1cccc(-c2cccc(N3CCCC3)c2)c1 , which is inactive

* * *

assay_target: Monoglyceride lipase (Homo sapiens)
Sequence (Q99685 whole entry): as above
assay_remarks: Inhibition of MAGL in human U937 cell homogenate assessed as decrease in [ethanolamine-1-3H]AEA levels preincubated for 30 mins followed by AEA addition measured after 15 mins by liquid scintillation counting method
pIC50: −log10 of the molar value.
Property: pIC50; scope: individual molecules

O=C(Nc1ccc(Cl)cc1)Nc1cccc(-c2cccc(N3CCCC3)c2)c1
< 5.00
O=C(Cc1ccc(Cl)cc1)Nc1cccc(-c2cccc(N3CCCC3)c2)c1
< 5.00
O=C(Nc1ccc(Cl)cc1)Nc1cccc(Nc2cccc(N3CCCC3)n2)c1
< 5.00

Here is the next item to consider.
Kindly note the recorded pIC50 for O=C(Nc1ccc(Cl)cc1)Nc1cccc(Nc2cccc(N3CCCC3)c2)c1 , which is < 5.00

* * *

assay_target: Cannabinoid receptor 2 (Homo sapiens)
Sequence (P34972 whole entry): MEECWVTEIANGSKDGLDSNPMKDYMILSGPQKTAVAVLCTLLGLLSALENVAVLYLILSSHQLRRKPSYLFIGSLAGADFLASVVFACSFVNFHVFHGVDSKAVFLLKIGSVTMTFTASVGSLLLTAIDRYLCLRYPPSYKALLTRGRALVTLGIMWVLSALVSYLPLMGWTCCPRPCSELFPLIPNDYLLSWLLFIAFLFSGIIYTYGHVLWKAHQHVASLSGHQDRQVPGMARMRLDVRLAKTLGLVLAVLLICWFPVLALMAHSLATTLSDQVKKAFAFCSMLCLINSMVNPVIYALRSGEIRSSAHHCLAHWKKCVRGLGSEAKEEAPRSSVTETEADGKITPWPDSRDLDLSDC
property_name: pKi
Recall that pKi is obtained by taking minus log10 of the concentration measured in molar.

Kindly note the recorded pKi for O=C(Nc1ccc(Cl)cc1)Nc1cccc(-c2cccc(N3CCCC3)c2)c1 , which is 4.30
